Target: HRgpA-6H (Porphyromonas gingivalis) (UniProt P28784)
Assay: ELISA, FASEBA Fab supernatant on coated HRgpA-6H
assay_endpoint: OD450 nm

{"binder": "KB001 mouse Fab variant VL S57A (Fab, V domains shown) VH: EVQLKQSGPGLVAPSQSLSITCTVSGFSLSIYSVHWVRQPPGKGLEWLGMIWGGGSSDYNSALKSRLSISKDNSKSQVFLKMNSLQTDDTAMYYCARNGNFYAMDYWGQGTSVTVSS VL: QIVLTQSPAIMSASLGERVTMTCTASSSVSSSFLHWYQQKPGSSPQLWIYSTSNLAAGVPARFSGSGSGTSYSLTISSMEAEDAATYYCHQYHHSPYIYTFGGGTKLEIK", "reported_result": 0.806}
{"binder": "KB001 mouse Fab variant VL H90W (Fab, V domains shown) VH: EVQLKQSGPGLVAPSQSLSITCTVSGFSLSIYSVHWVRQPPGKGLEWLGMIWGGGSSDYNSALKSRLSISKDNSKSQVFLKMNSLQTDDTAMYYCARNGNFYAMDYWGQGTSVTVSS VL: QIVLTQSPAIMSASLGERVTMTCTASSSVSSSFLHWYQQKPGSSPQLWIYSTSNLASGVPARFSGSGSGTSYSLTISSMEAEDAATYYCWQYHHSPYIYTFGGGTKLEIK", "reported_result": 0.763}

Read the next record carefully.
If you can, please state the reported OD450 nm value of KB001 mouse Fab variant VL H94F (Fab, V domains shown) VH: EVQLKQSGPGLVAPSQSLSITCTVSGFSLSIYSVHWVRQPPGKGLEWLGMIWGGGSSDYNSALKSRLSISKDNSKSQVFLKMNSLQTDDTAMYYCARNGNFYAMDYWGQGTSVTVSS VL: QIVLTQSPAIMSASLGERVTMTCTASSSVSSSFLHWYQQKPGSSPQLWIYSTSNLASGVPARFSGSGSGTSYSLTISSMEAEDAATYYCHQYHFSPYIYTFGGGTKLEIK .
0.77
